# MIC80 annotations
- Tested on: Pichia kudriavzevii
- Assay overview: Antifungal activity against Candida krusei after 24 hrs by serial dilution method
- Type: functional

Molecule | Unit label | MIC80
Cc1ccc(CON=C2CCN(CC(O)(Cn3cncn3)c3ccc(F)cc3F)CC2)cc1 (racemic) | µg/mL | 16
OC(CN1CCC(=NOCc2cccc3ccccc23)CC1)(Cn1cncn1)c1ccc(F)cc1F (racemic) | µg/mL | 4
COc1cccc(CON=C2CCN(CC(O)(Cn3cncn3)c3ccc(F)cc3F)CC2)c1 (racemic) | µg/mL | 64
N#Cc1ccc(CON=C2CCN(CC(O)(Cn3cncn3)c3ccc(F)cc3F)CC2)cc1 (racemic) | µg/mL | 0.25
